So I've got a bunch of molecules here, and I need their residual complex % in H2O/CH3OH values.
ASSAY PROTOCOL: Stability in H2O/CH3OH solution (UV–vis)
Assay type: physicochemical
TEST PARAMETERS: ca. 5:1 v/v, 18 h
Numeric answer only, unit % assumed.

## Task Dear colleague, I am looking for the recorded residual complex % in H2O/CH3OH of the following molecule: F[B-](F)(F)F.O=[C]=[Ru+]1([CH]2C=CC=C2)[C](=O)[Ru]1(=[C]=O)([CH]=C=C1CCCC1)[CH]1C=CC=C1 (centres unmarked)
## Result 78

## Task Same lookup for CC12CCC(=O)C=C1CCC1C2CCC2(C)C1CCC2(O)C1=[CH][Ru]2(=[C]=O)([CH]3C=CC=C3)[C](=O)[Ru]2([CH]2C=CC=C2)[C]1=O (centres unmarked) , please.
## Result 14

## Task Same lookup for CC12CCC3c4ccc(O)cc4CCC3C1CCC2=C=[CH][Ru]1(=[C]=O)([CH]2C=CC=C2)[C](=O)[Ru+]1(=[C]=O)[CH]1C=CC=C1.F[B-](F)(F)F (mixture of isomers) , please.
## Result 43

## Task Same lookup for O=[C]=[Ru]12([CH]3C=CC=C3)[CH]=C(C3(O)CCCC3)[C](=O)[Ru]1([CH]1C=CC=C1)[C]2=O (centres unmarked) , please.
## Result 23

## Task Same lookup for CC12CCC3C(CCC4=CC(=O)CCC43C)C1CCC2=C=[CH][Ru]1(=[C]=O)([CH]2C=CC=C2)[C](=O)[Ru+]1(=[C]=O)[CH]1C=CC=C1.F[B-](F)(F)F (mixture of isomers) , please.
## Result 73
